All figures here come from patent US20230065953A1.

System: adult cat fleas (Ctenocephalides felis)
procedure-summary: Ctenocephalides felis in-vitro contact test, adult cat flea
Assay type: in vivo
condition-context: 5 μg/cm^2 (=500 g/ha), after 48 hours
Record form. Attribute: efficacy (fleas dead or moribund). Fill in for each entry.
Numbers only here, please. The scale is %.

Fill in the blank: the reported efficacy (fleas dead or moribund) of `Cc1nc([C@H](C)NC(=O)c2cc(C(F)(F)F)cc(C(F)(F)F)c2)n(-c2ncc(C(=O)N(C)C(C)C)s2)n1` is ____.
90

Give the measured efficacy (fleas dead or moribund) of CC(NC(=O)c1cc(OC(F)(F)F)cc(C(F)F)c1)c1ncnn1-c1ncc(C#N)s1 (centres unmarked) .
100

Would you kindly share the measured efficacy (fleas dead or moribund) for CC(NC(=O)c1cc(C(F)F)cc(C(F)F)c1)c1ncnn1-c1ncc(C#N)s1 (centres unmarked) ?
80

Given the molecule `CNC(=O)c1cnc(-n2nc(C)nc2[C@H](C)NC(=O)c2cc(C(F)(F)F)cc(C(F)(F)F)c2)s1` , what is its reported efficacy (fleas dead or moribund)?
100

Which measured efficacy (fleas dead or moribund) value corresponds to `Cc1nc([C@H](C)NC(=O)c2cc(Br)cc(OC(F)(F)F)c2)n(-c2ncc(C(=O)N(C)C(C)C)s2)n1` ?
80

Look up efficacy (fleas dead or moribund) for this molecule: `C[C@H](NC(=O)c1cc(Cl)cc(S(C)(=O)=O)c1)c1ncnn1-c1ncc(C#N)s1`
100

Please look up its efficacy (fleas dead or moribund): `C[C@H](NC(=O)c1cc(C(F)(F)F)cc(C(F)(F)F)c1)c1ncnn1-c1ncc(C(=O)N(C)C)s1`
100

What value of efficacy (fleas dead or moribund) has been recorded for this entry: `C[C@H](NC(=O)c1cc(I)cc(OC(F)F)c1)c1ncnn1-c1ncc(C#N)s1`
90
